READOUT: melting point (°C)

| COMPOUND | VALUE_UNIT | RESULT_NUMBER |
| --- | --- | --- |
| CC1CCC2(C)C(=CCC3C2CCC2(C)C(C(=O)CN)CCC32)C1 (stereo unspecified) | °C | 139 |

1. CCC(C(=O)c1ccc(Cl)cc1)n1ncn(-c2cnc(N3CCN(c4ccc(OC)cc4)CC3)nc2)c1=O (stereo unspecified)
2. CCSc1cc(C(C)(C)C)c(O)c(C(C)(C)C)c1
Param metric = melting point; output whichever of 1 , 2 has the minimum value. Could you answer with the label of the item you picked?
2

###

READOUT: melting point

Example cases with answers are listed next.
| COMPOUND | melting point |
| --- | --- |
| CCOC(=O)c1sc(N)nc1-c1ccc(Cl)cc1 | 198 to 200 °C |
| CCCCN(CCO)c1cccc(O)c1 | 45 to 47 °C |
| COc1ccc2cccc(NC(C)=O)c2c1 | 154 to 155 °C |
| CN(CC(=O)OC(C)(C)C)Cc1ccc(CCn2cnc3cc(-c4ccc(Cl)cc4)sc3c2=O)cc1 | 130 °C |

Dear colleague, I am looking for the recorded melting point of the following compound: O=C(NC(Nc1c(Nc2cccnc2)c(=O)c1=O)C(F)(F)C(F)(F)F)c1cccc(Cl)c1 (stereo not given)
212 to 213 °C

###

// reported melting point for each item listed

Example cases with answers are listed next.
| COMPOUND | melting point |
| --- | --- |
| CCCc1c(OCCCS(=O)(=O)c2ccc(CC(=O)OC)c(Cl)c2Cl)ccc(C(C)=O)c1O | 115 to 118 °C |
| COc1cccc2c(=O)n3nc(C(N)=O)cc3[nH]c12 | 265 to 270 °C |
| CCCc1nc2c(N)nc3cc(F)ccc3c2s1 | 192 to 194 °C |

Dear colleague, I am looking for the recorded melting point of the following compound: CCOC(=O)c1cnc2c(c(C)nc3cc(C)nn32)c1NC
208 to 210 °C

What do you get for COC(=O)C1=C(C)NC(C(C)=O)=C(C(=O)OC)C1c1ccccc1Cl (centres undefined) ?
161 to 162 °C

What do you get for O=c1ccoc2c(C/C=C/c3ccccc3)c(OCc3ccccc3)ccc12 ?
131 to 133 °C

What do you get for CC(C)c1cc(C(=O)Nc2ccc(C(=O)O)nc2)oc1C(C)C ?
106 to 108 °C

What do you get for O=C1[C@H]2CCC[C@H]2N(C(=O)CCl)c2ccccc2N1Cc1ccccc1 (relative stereo) ?
154 to 156 °C

What do you get for COc1ccc(O)c2c1SC1CC3C(NC(=S)c4ccccc4)C(O)=C(C(N)=O)C(=O)C3(O)C(O)=C1C2=O (centres undefined) ?
223 °C

###

READOUT: melting point

| COMPOUND | READOUT | RESULT |
| --- | --- | --- |
| O=C(Nc1nccs1)c1nc(-c2cccc3ccccc23)[nH]c1-c1ccc(F)cc1 | melting point | 218 to 220 °C |
| CCc1c(-c2ccncc2)[nH]c2ccc(C3=NNC(=O)CC3)cc12 | melting point | > 300 °C |
| COC(=O)c1c(OC)ccc2ccccc12 | melting point | 175 to 176 °C |
| Clc1ccc(CSC(CCc2ccccc2)Cn2ccnc2)cc1Cl (centres undefined) | melting point | 144 to 146 °C |
| O=C1c2ccccc2S(=O)(=O)N1CCNCC1COc2ccccc2O1 (centres undefined) | melting point | 181 °C |

Okay, now this compound:
Dear colleague, I am looking for the recorded melting point of the following compound: CC(C)OC(=O)c1cc(N2C(=O)C(C)C(C)N(C)C2=O)c(F)cc1Cl (centres undefined)
119 to 120 °C

###

// reported melting point for each item listed

Example cases with answers are listed next.
| COMPOUND | RESULT |
| --- | --- |
| Cc1ccn2cc(CCc3ccc4nc(N=CN(C)C)oc4c3)nc2c1 | 150 to 151 °C |
| CCN(Cc1csc(C2CCCC2)n1)C(=O)N[C@H](C(=O)N[C@@H](Cc1ccccc1)C[C@H](O)[C@H](Cc1ccccc1)NC(=O)OCc1cncs1)C(C)C | 67 to 69 °C |
| COC(=O)c1cscc1NC(=O)COc1ccc(I)cc1 | 135 to 137 °C |
| CC(=O)OC(C)N1C(=O)/C(=C\c2[nH]c(C)cc2C)c2ccccc21 (stereo unspecified) | 107 to 110 °C |
| Cc1nn(-c2c(Cl)cc(C(F)(F)F)cc2Cl)c(C)c1C=NC(C#N)=C(N)C#N | 237 to 240 °C |
| COc1ccc(S(=O)(=O)N2CCC[C@H]2C(=O)N2CCN(C(=O)c3ccc(C=NN)cc3)CC2)c(OC)c1COc1cccc2c(C)cc(C)nc12 | 136 °C |

Dear colleague, I am looking for the recorded melting point of the following compound: COc1ccc(-c2ccccc2C)cc1C=O
66 to 69 °C

What do you get for COc1ccccc1-c1coc2c(O)c(O)ccc2c1=O ?
220 to 222 °C

What do you get for CC(C)c1cccc(C(C)C)c1NC(=O)NCC(c1ccccc1)c1ccccc1 ?
175 to 176 °C

What do you get for COCCc1nc2c(N)nc3ccccc3c2n1CCCCN1CCCS1(=O)=O ?
156 to 158 °C

What do you get for CC(C)(C)OC(=O)N[C@H]1CCN(c2nc3c(cc2F)c(=O)[nH]c(=O)n3C2CC2)C1 ?
220 to 222 °C

###

// reported melting point for each item listed

| COMPOUND | melting point |
| --- | --- |
| CCCNC(=O)Nc1ccc(C(=O)c2ncc3ccccn23)cc1C(=O)OC | 205 °C |

Dear colleague, I am looking for the recorded melting point of the following compound: Cc1ccnc(C(=O)c2[nH]c3cc(Cl)ccc3c2NC(=O)[C@H](C)O)c1
206 to 207 °C

What do you get for O=C(O)COc1cc2ccsc2c(Cl)c1Cl ?
166 to 167 °C

What do you get for COc1ccc(C(=O)C(CCC(=O)c2ccc(F)cc2)c2ccc(OC)cc2)cc1 (centres undefined) ?
71 to 74 °C

###

// reported melting point for each item listed

| COMPOUND | melting point |
| --- | --- |
| O=C(O)[C@H](O)C1CCCCC1 | 124 to 126 °C |
| COc1cccc(Cn2cc3c(-c4cccc(C(=O)NCCO)c4)cccc3n2)c1 | 176 to 177 °C |
| CCc1cc2c(ccc(=O)n2Cc2ccc(C(=O)OC)cc2)c(CC)n1 | 128 to 130 °C |

Dear colleague, I am looking for the recorded melting point of the following compound: Cc1c(C)c(NC(=O)CC(C)(C)C)c2c(c1C)C(c1ccc(C(C)C)cc1)CO2 (stereo not given)
190 to 191 °C

What do you get for CCOC(=O)N(C)n1cccc1C(=O)c1ccccc1 ?
50 to 52 °C

What do you get for N#Cc1nn(-c2c(Cl)cc(C(F)(F)F)cc2Cl)c(N)c1-c1ccc(C(F)(F)F)o1 ?
148 to 151 °C

###

// reported melting point for each item listed

| SMI | melting point |
| --- | --- |
| NNC(=O)N(O)C1c2ccccc2Oc2ccccc21 | 186 °C |
| C[C@H](CN1CC=C(c2cccs2)CC1)Nc1ccccn1 | 63 to 68 °C |
| CC(C)CC(=O)Nc1cccc(-c2ccnc3c(C(=O)c4ccsc4)cnn23)c1 | 137 to 139 °C |

Okay, now this compound:
Dear colleague, I am looking for the recorded melting point of the following compound: O=c1[nH]c2sccc2c2ccccc12
266 to 268 °C

###

Residues, ends and D or L forms follow the SMILES beside them.
// reported melting point for each item listed

Example cases with answers are listed next.
| COMPOUND | RESULT |
| --- | --- |
| Cc1ccc(COc2ccc(C(=O)NC[C@@H](C(=O)NO)N3CCN(S(C)(=O)=O)CC3)cc2)cc1 | 180 °C |
| CCNC(=O)c1c(C)cccc1C(C)(C)C | 110 to 112 °C |
| Cc1ncc2n1-c1ccc(Cl)cc1C(c1ccccc1F)=NC2O (stereo not given) | 185 to 186 °C |
| NC(=O)CC(NC(=O)C(N)CO)C(=O)NC(Cc1ccccc1)C(N)=O (stereo not drawn) (H-Ser-Asn-Phe-NH2; configuration not given here) | 169 to 172 °C |
| O=S(=O)(Nc1cccc(CCOCc2csc(-c3ccc(F)c(Cl)c3)n2)c1)C(F)(F)F | 141 to 143 °C |
| Cc1ccc2c(C(C)C(N)=O)ccc(C(C)C)cc1-2 (stereo not given) | 149 to 152 °C |
| CC1(C)CCC(C)(C)c2cc(C(COc3ccc(C(=O)O)c(O)c3)=NO)ccc21 | 220 to 222 °C |
| COc1ccc(C(=O)c2cccs2)c2occ(C)c12 | 131 to 134 °C |

Dear colleague, I am looking for the recorded melting point of the following compound: COCCOCCOCCOc1ccc(-c2nc(C(=O)Nc3nccs3)c(-c3ccc(Cl)cc3)[nH]2)cc1
120 to 122 °C

What do you get for CCOC(=O)C=Cc1ccc(C(=O)Nc2ccc3c(c2)C(C)(C)CCC3(C)C)cc1 ?
166 °C

What do you get for Cc1nc(=O)[nH]c2ccc(Cl)cc12 ?
> 270 °C
